Molecular target: T1, CH2-4 constant domains of human IgE linked to a transmembrane protein, on 293 cells (human, UniProt P01854-1 104-428)
T1 construct: domain: CH2-4 constant domains; also called human IgE-expressing 293 cells
T1 sequence (P01854 other isoform, or with tags, fused parts or gaps): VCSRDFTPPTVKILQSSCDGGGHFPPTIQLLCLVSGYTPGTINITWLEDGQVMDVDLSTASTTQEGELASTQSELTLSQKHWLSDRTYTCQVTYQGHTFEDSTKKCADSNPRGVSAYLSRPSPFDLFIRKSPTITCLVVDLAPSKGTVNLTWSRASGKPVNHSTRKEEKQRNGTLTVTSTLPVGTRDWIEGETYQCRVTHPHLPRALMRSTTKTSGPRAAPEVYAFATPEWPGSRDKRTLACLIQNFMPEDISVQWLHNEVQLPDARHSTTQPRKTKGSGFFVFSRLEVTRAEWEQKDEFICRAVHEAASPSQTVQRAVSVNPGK
Test: flow cytometry, 293 cells expressing human IgE CH2-4
RECORDED METRIC: Bmax

Given hzB10v12-NNT (Fc fusion, monomeric) VHH-Fc: EVQLVQSGGELVQAGGSLRLSCVASGLTFSSYNMGWLRQAPGKEREFVGMSGSSSTSTYYADSVKGRFTISRDNSKNTVYLQMNSLKPEDTAVYYCAARRVLSTYWSDRSWDFWGQGTQVTVKPGGPSVFLFPPKPKDTLMISRTPEVTCVVVDVSHEDPEVKFNWYVDGVEVHNAKTKPREEQYNSTYRVVSVLTVLHQDWLNGKEYKCKVSNKALPAPIEKTISKAKGQPREPQVYTLPPSRDELTKNQVNLTCLVKGFYPSDIAVEWESNGQPENNYKTTPPVLDSDGSFFLNSTLTVDKSRWQQGNVFSCSVMHEALHNHYTQKSLSLSPGK , respond with its Bmax.
2.72e+06 MFI

Given hzB10v8-NNT (Fc fusion, monomeric) VHH-Fc: EVQLVQSGGELVQAGGSLRLSCVASGLTFSSYNMGWLRQAPGKEREFVGISGSSSTSTYYADSVKGRFTISRDNSKNTVYLQMNSLKPEDTAVYYCAARRMLSTYWSDRSWDFWGQGTQVTVKPGGPSVFLFPPKPKDTLMISRTPEVTCVVVDVSHEDPEVKFNWYVDGVEVHNAKTKPREEQYNSTYRVVSVLTVLHQDWLNGKEYKCKVSNKALPAPIEKTISKAKGQPREPQVYTLPPSRDELTKNQVNLTCLVKGFYPSDIAVEWESNGQPENNYKTTPPVLDSDGSFFLNSTLTVDKSRWQQGNVFSCSVMHEALHNHYTQKSLSLSPGK , respond with its Bmax.
2.75e+06 MFI

Given hzB10v13-NNT (Fc fusion, monomeric) VHH-Fc: EVQLVQSGGELVQAGGSLRLSCVASGLTFSSYNMGWLRQAPGKEREFVGMSGSSSTSTYYAESVKGRFTISRDNAKNTVYLQMNSLKPEDTAVYYCAARRMLSTYWSDRSWDFWGQGTQVTAKPGGPSVFLFPPKPKDTLMISRTPEVTCVVVDVSHEDPEVKFNWYVDGVEVHNAKTKPREEQYNSTYRVVSVLTVLHQDWLNGKEYKCKVSNKALPAPIEKTISKAKGQPREPQVYTLPPSRDELTKNQVNLTCLVKGFYPSDIAVEWESNGQPENNYKTTPPVLDSDGSFFLNSTLTVDKSRWQQGNVFSCSVMHEALHNHYTQKSLSLSPGK , respond with its Bmax.
2.82e+06 MFI

Given hzB10v11-NNT (Fc fusion, monomeric) VHH-Fc: EVQLVQSGGELVQAGGSLRLSCVASGLTFSSYNMGWLRQAPGKEREFVGMSGSSSTSTYYADSVKGRFTISRDNSKNTVYLQMNSLKPEDTAVYYCAARRILSTYWSDRSWDFWGQGTQVTVKPGGPSVFLFPPKPKDTLMISRTPEVTCVVVDVSHEDPEVKFNWYVDGVEVHNAKTKPREEQYNSTYRVVSVLTVLHQDWLNGKEYKCKVSNKALPAPIEKTISKAKGQPREPQVYTLPPSRDELTKNQVNLTCLVKGFYPSDIAVEWESNGQPENNYKTTPPVLDSDGSFFLNSTLTVDKSRWQQGNVFSCSVMHEALHNHYTQKSLSLSPGK , respond with its Bmax.
3.41e+06 MFI
